Data provenance is patent US20180016324A1.

Assay System: T1, ZIKV (prM80E) with a C-terminal myc-myc-hexahistidine tag (Zika virus, UniProt A0A024B7W1 104-694)
T1 construct: also called ZIKV (prM80E)-mmH; ZIKV-mmH
Test Summary: SPR, mAb captured, 37C, pH 5.0 chase
Measured Endpoint: t½ (min)
Dear colleague, please return just the value in min, with no unit written.

Some entries whose results are on file:
[
  {
    "Binder": "H4H25641P (antibody, V domains shown) VH: QVQLVESGGGVVQPGRSLRLSCAASGFTFSYYGMHWVRQAPGKGLEWVAVISYDASNNYYVDSVKGRFTISRDNSKNTLYLQMNSLRAEDTAVYYCAKDYGGRFDYWGQGTLVTVSS VL: EIVLTQSPGTLSLSPGERATLSCGASQSVSSYLAWYQQKPGQTPRLLIYGASSRATGIPDRFSGSGSGTDFTLTISRLEPEDFAVYYCQQYGSSPWTFGQGTKVEIK",
    "t½ / min": 0.9
  },
  {
    "Binder": "H4H25710N (antibody, V domains shown) VH: EVQLLESGGGLVQPGGSLRLSCAASGFTVSNNYMSWVRQAPGKGLEWVSVIYSGGRTNYGDSVKGRFTISRDNSKNTLYLQMNSLRAEDTAVYYCARENYDFWSGDPYGWDVWGQGTTVTVSS VL: DIQMTQSPSSLSASVGDRVTITCRASQDISNYLAWFQQKPGKAPKSLIYGASSLQRGVPSKFRGSGSGTDFTLTISSLQPEDFASYYCQQYNSYPYTFGQGTKLEIK",
    "t½ / min": 0.03
  }
]

For the next question, use this binder.
So what's the measured t½ for this one? H4H25602P (antibody, V domains shown) VH: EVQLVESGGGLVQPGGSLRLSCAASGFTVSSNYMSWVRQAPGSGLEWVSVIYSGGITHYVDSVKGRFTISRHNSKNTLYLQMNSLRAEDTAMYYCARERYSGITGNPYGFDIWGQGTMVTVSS VL: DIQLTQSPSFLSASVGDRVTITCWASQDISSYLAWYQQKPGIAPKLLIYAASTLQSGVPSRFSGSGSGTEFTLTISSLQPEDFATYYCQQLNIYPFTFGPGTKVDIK
0.1
